meta.source: the MegaScale stability set (Tsuboyama et al. 2023)

B1: r16_88_TrROS_Hall (parent)
chain: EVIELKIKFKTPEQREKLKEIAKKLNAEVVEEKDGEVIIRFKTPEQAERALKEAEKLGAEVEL

# Variants of: B1
# TEST NAME: folding stability dG (cDNA display proteolysis); higher = more stable
# TEST CONDITIONS: PBS, room temperature
Label Criterion met when folding stability dG is at or above 4 kcal/mol; otherwise label Criterion not met.

VARIANT CODE | CLASS
V30K | Criterion met
Q14C | Criterion met
A47P | Criterion not met
E32C | Criterion met
E28G | Criterion met

Please indicate if the recorded folding stability dG for A50T meets or exceeds 4 kcal/mol.
Criterion met

Please indicate if the recorded folding stability dG for A22L meets or exceeds 4 kcal/mol.
Criterion met

Please indicate if the recorded folding stability dG for V37T meets or exceeds 4 kcal/mol.
Criterion met
